Tested on: MS2 coat protein
Assay: apparent Kd, MS2 coat protein; higher = weaker binding; RNA-MaP array; FMN 200 µM where present
Details: ligand present: flavin mononucleotide; designed as: OFF switch for flavin mononucleotide
endpoint: apparent Kd (nM)
Expressed in nM, but write only the number.

Prompt: I have this sequence here, GGAUCGAGUGUGAGGAUAUGCUGGUCGUAAGAUCAGCAGAAGGCACAUGAGGAUCACCCAUGUGAAAACGGUCC , and I need its recorded apparent Kd.
Completion: 164

Next up:
Prompt: // lookup apparent Kd for GGAUAGGACAGAGGAUAUACGGAUAGGAUCUACUAUCAAACAAGUCCUACAUGAGGAUCACCCAUGUAGAAGGCUGUCCUAUCG
Completion: 22.1

---

System: MS2 coat protein
Test: apparent Kd, MS2 coat protein; higher = weaker binding; RNA-MaP array; FMN 200 µM where present
Settings: designed as: OFF switch for flavin mononucleotide; no ligand
Entries and their apparent Kd values follow.
Field format: number, assumed nM, no unit text.

Please review the following examples before continuing.
Prompt: Report apparent Kd for CUUUUGUGAGGAUAUUGGUAGUAAAUGAAUAAAAUUAUUACCGAGAAGGUACAUGAGGAUCACCCAUGUUCCUC please.
Completion: 19.4

Prompt: # input sequence: GAGGACUGAAUAAAUAACUCAAAUACAUGAGGAUCACCCAUGUAGGAUAUCGUCAGGAAUACUGACGAGAAGGACAUACAGUCC ; wanted: its apparent Kd
Completion: 13.4

Prompt: Item under review: UUAUUAUAUGUAGGAUAUGCAUAUUAUUAUUAUGCAGAAGGACAUGAGGAUCACCCAUGUAUAUUAUUAUUGUAUAUUAUAUAU . Reported apparent Kd?
Completion: 28.4

***
Prompt: Which measured apparent Kd value corresponds to AGGUGACAUGAGGAUCACCCAUGUCAGGAUAUAUACACCGCCGGCGUGAAGCCGGCGGAUAGAAGGGACAAAAU ?
Completion: 17.1

Prompt: For the sequence shown here, UGUUAAAUUGAUCCUGCAAGUACAUGAGGAUCACCCAUGUGCUAGGAUAUCGCGCAGCUAAAGACCGAGAAGGAGCACAAUGUA , give the reported apparent Kd.
Completion: 39.2

Prompt: Which apparent Kd is reported for this sequence? UGGCGUAUCGAAGGAUAUCUGGGCUUACUCGGAGGAUCGACAUGAGGAUCACCCAUGUAUGACCAAGAGAAGGUCGAGGACGUA
Completion: 141

---

System: MS2 coat protein
Assay: apparent Kd, MS2 coat protein; higher = weaker binding; RNA-MaP array
Conditions: designed as: ON switch for flavin mononucleotide; no ligand
Collected apparent Kd values appear next to each entry.
Use nM as the unit, but write only the number.

Solved entries:
Prompt: Item CACUUCAUAAUAGGAUAUCAUGGAUGACAUGAGGAUCACCCAUGUCCGCACUCUUCAACUACACGUGAGAAGGAUUCGCGGGUC has what recorded apparent Kd?
Completion: 194

Prompt: Sample AUCUCUGACUAAGGAUAUGCGGCAAAGAGCCUCUCAGAAAACAUGAGGAUCACCCAUGUAUGGACGCAGAAGGUAGUAGCCCAC — what was its apparent Kd?
Completion: 9.06

Prompt: Looking for the measured apparent Kd of ACCACAGAGUAGAAGGUCCGACACGGCUCGUCGGAAGGAUAUACAUAUUGUUAGAGAUGGGAACAUGAGGAUCACCCAUGUGUC , can you help?
Completion: 16.2

Continuing:
Prompt: # lookup: apparent Kd of AACAAACACAUGAGGAUCACCCAUGUCCUUGAUAUAAUUACUCAGGAUAUCAUGUCCUCUCACCGUGAGAAGGGAGUCAAAACC
Completion: 76.8

Prompt: Form field: reported apparent Kd of UUAUAAGAGAUAGGAUAUUCCGACAAAAUCGAUGAAGAAGGAUCACUCAAAACAUGAGGAUCACCCAUGUAUAUAACAAAUGUU
Completion: 57.5

Prompt: Reported apparent Kd, sequence GACGCGAGCGCACUUACAUGAGGAUCACCCAUGUGUUCCGAAAGAAGGGCUAGUGUACCCGCAGAGCAGGAUAUUUCGAUUUGC : ____
Completion: 186

Prompt: Which apparent Kd reading was recorded for the sequence GGAUCACAUGAGGAUCACCCAUGUAAAGACGAUACAGGAUAUGACAGAACACGCAUCGUUUCAGAAGGGUAUAGUG ?
Completion: 66.9

Prompt: I would be grateful if you could share the reported apparent Kd for UUUUCUGAGGAGAAGGACGACCACAAACAUGAGGAUCACCCAUGUCUUACUAUCUGACCGCCAUCGUAGGAUAUCCCGAGGGAG .
Completion: 11.2

Prompt: Look up apparent Kd: CGGGCCAUCUAAGGAUAUUUGCCGGCCCGAAGACAUGAGGAUCACCCAUGUGUGAACGGAUGUCGAAAGAAGGUAGACCUGGUC
Completion: 300

Prompt: Given the entry AAGGUGCACGCUCAGGAUAUAUUCCAGGUUACAUGAGGAUCACCCAUGUAGGGUUGAAGAAGGACAUAGAAGGGAGCCUACUUGGC , report its measured apparent Kd.
Completion: 32.6

Prompt: Would you mind telling me what apparent Kd value was observed for UACAUGAGGAUCACCCAUGUCUCUAGUCGUUUUUGUUAGAAUAGAAGGAGUCGCAUAAAGCAUAACUAGGAUAUAUUCUUGUUU ?
Completion: 16.3

Prompt: Dear colleague, I am looking for the recorded apparent Kd of the following sequence: GGAAGUAGAUGUCAGGAUAUCAAAAGCAUAACAUGAGGAUCACCCAUGUCCAAAAGGCAGAGAAUUGAGAAGGGACGUAGGUUACA
Completion: 42.2

Prompt: Fill in: apparent Kd of CCGCGUGCGGAAGGAUAUAUCCUAUGUUAGGAAAAUAACACAUGAGGAUCACCCAUGUCGAAGAGAUAGAAGGUCCGACAUACA is ___
Completion: 29.5

Prompt: Find the recorded apparent Kd belonging to CAAAACAUGAGGAUCACCCAUGUAGAUACGUGAAAAUUAUGGGAGGAUAUACAAUAGGACUGUAUGAAGAAGGCCCGAAAGCCA and report it.
Completion: 20

Prompt: Bench note: what apparent Kd did AACAUGUCUCAAGGAUAUAAAACGCUAAAUGGCUUAGAAGGUGAGGCCGCUGUGAGGAUCCCUGACAUGAGGAUCACCCAUGUC show?
Completion: 10.8

Prompt: What does the data say about its apparent Kd? Entry: AGAAUAUGAAUAGGAUAUCUGCGUAAUGAUAAAAGAGAAGGAAUUAGAAGUAUUACAUGAGGAUCACCCAUGUUUGAUAAGAAA
Completion: 9.61

Prompt: Return reported apparent Kd; argument: UCGGUUCGCGGAGGAUAUACUUCACUUCAGGAAGUAGAAGGCCGGCGGUGCUAAGGGUCACAUGAGGAUCACCCAUGUCUUCAC
Completion: 30.6

Prompt: Which measured apparent Kd value corresponds to AUCUAGUGCCUCAAGGAUAUGCACAGAGAGACAUGAGGAUCACCCAUGUAACAAGCAUGCUCAACGCAGAAGGUGACACUUAAGAU ?
Completion: 39.2

Prompt: # get_value(readout='apparent Kd', item= AAGCUACAUGAGGAUCACCCAUGUCUCACGUCACUAGGAUAUCUGAAGGUGACGAAGUUCAGAGAAGGAGUGCAUC )
Completion: 97.2

Prompt: What value of apparent Kd has been recorded for this entry: GGAUAAACUCAGAAGGAACGGCUCAAGUAAUAGUAAGGAUAUGACUGUAGGACUACAUGAGGAUCACCCAUGUUGAUGAAACAG
Completion: 8.03

---

Collected apparent Kd values appear next to each entry.
Tested on: MS2 coat protein
Experiment: apparent Kd, MS2 coat protein; higher = weaker binding; RNA-MaP array
Conditions: ligand present: flavin mononucleotide; designed as: OFF switch for flavin mononucleotide
Remember to put the unit after the number in your answer.

Prompt: For UUCCCUGCUUAGGAUAUCUAGACAAGACGGUCAAGAGAAGGAAGUACAUGAGGAUCACCCAUGUUUAGCAUGAA , what is its reported apparent Kd?
Completion: 14.2 nM

---
Prompt: For the sequence AGCGAAUAAGGAUAUACGUGAAAAGCACUUAGAGUUGGAUCACAUGAGGAUCACCCAUGUAGAAGGUAUGACGA , what apparent Kd is on record?
Completion: 15.7 nM

Prompt: Consider the sequence CGCUGUUGGCAGGAUAUAUUCGCAGCCCAGGCAAUAGAAGGGCCGACAUGAGGAUCACCCAUGUGUCUACAGGG and give its measured apparent Kd.
Completion: 341 nM

Prompt: Given UGGUCACAUGAGGAUCACCCAUGUAAGGAUAUCCGCGCCAUAGAGGAAAAGACGGUAUGGAGAAGGUACAGCUU , state its recorded apparent Kd.
Completion: 26.9 nM

---

System: MS2 coat protein
Assay: apparent Kd, MS2 coat protein; higher = weaker binding; RNA-MaP array; tryptophan 2.4 mM where present
Details: ligand present: tryptophan; designed as: OFF switch for tryptophan
Listing of entries alongside the reported apparent Kd.
Please give a number only; it is taken to be in nM.

Answered examples (3):
Prompt: Reported apparent Kd for UGUAUUGGAAACAGUACUAGUGAUCCGGUCCGAGGACCGGUACGGCCGCCACUCGAUAUAAAUAAACAUGAGGAUCACCCAUGUA : what is it?
Completion: 29.8

Prompt: Could you tell me which apparent Kd is on file for CCUAUGCAGUCGGCCGCCACUGAACAUGAGGAUCACCCAUGUAUAUAAAGAUCCUGAUAUAAUAACAGGACCGGGACUGUAUAGG ?
Completion: 157

Prompt: Which apparent Kd is reported for this sequence? UUGCCCAGUACGGCCGCCACUGUGUGCAGGGAACCCAGGUCCACAUGAGGAUCACCCAUGUACAGCAGGACCGGGUACUUGCAAU
Completion: 11.7

For the next question, use this sequence.
Prompt: Return reported apparent Kd; argument: GAUAUGGAAACAUGUCAGAUCCUUACCGGUCGAGGACCGGUACGGCCGCCACUCGAAAACGAGGAACAUGAGGAUCACCCAUGUA
Completion: 87.5
